# systemUnderTest: hFZD7 CRD-Fc (human, UniProt O75084 33-185)
# assaySummary: spot phage ELISA
Recorded S/N, one value per entry.

Example binders with recorded S/N:
binder | S/N
APSDDLAAWCHVMY [SEQ ID NO 73] | 51.3
VPADALAVWCDVMY [SEQ ID NO 66] | 53
VASDDLASWCHAMY [SEQ ID NO 62] | 53.5

Lookup: S/N for APADDVEFWCHVMY [SEQ ID NO 43] ?
Found: 58.6

Lookup: S/N for APADDLEFWCHAMY [SEQ ID NO 89] ?
Found: 36.3
